- system.under.test: FKBP52FK1 (Homo sapiens, UniProt Q02790)
- Sequence (Q02790 50-138 limits assumed): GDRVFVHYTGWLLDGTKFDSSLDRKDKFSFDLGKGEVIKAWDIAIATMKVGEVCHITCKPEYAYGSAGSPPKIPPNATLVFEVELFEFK
Overview of recorded Ki for various compounds
Supply the numeric figure in nM, leaving out any unit text.

These recorded examples may help you get a feel for the data.
C=C[C@H]1CN([C@@H](C)c2cn(CCOCCOCCOCCOCCOCC(=O)Nc3cccc4c3C(=O)N(C3CCC(=O)NC3=O)C4=O)nn2)C(=O)[C@@H]2CCC[C@H]1N2S(=O)(=O)c1cc(Cl)cc(Cl)c1 (stereo partly drawn) = 4.9
C=C[C@H]1CN(Cc2cn(CCOCCOCC(=O)Nc3cccc4c3C(=O)N(C3CCC(=O)NC3=O)C4=O)nn2)C(=O)[C@@H]2CCC[C@H]1N2S(=O)(=O)c1cc(Cl)cc(Cl)c1 (stereo partly drawn) = 43

Attention now shifts to the item below.
### Prompt What Ki value was documented for this compound, C=C[C@H]1CN([C@@H](C)c2cn(CCOCCOCC(=O)Nc3cccc4c3C(=O)N(C3CCC(=O)NC3=O)C4=O)nn2)C(=O)[C@@H]2CCC[C@H]1N2S(=O)(=O)c1cc(Cl)cc(Cl)c1 (stereo partly drawn) ?
### Response 5.7
